Quick list: pEC50 per entry.
Biological target: Melanocortin receptor 4 (Homo sapiens, UniProt P32245, Y268A)
Sequence (P32245 whole entry Y268A): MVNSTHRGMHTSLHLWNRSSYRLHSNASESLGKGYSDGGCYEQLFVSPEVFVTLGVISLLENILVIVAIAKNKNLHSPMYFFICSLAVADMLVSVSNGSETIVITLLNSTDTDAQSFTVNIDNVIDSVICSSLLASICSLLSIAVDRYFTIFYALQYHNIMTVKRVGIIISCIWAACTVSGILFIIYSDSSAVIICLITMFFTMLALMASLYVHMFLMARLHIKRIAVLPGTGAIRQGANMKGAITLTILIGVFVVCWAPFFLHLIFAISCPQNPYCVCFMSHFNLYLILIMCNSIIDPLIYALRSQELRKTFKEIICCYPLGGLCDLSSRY
Assay: Agonist activity at the mutant MC4R Y268A expressed in HEK293 cells by cAMP accumulation
Lab note: report pEC50 as minus log10 of the concentration in molar units, number only.

CN(C)[C@H]1C[C@@H](C(=O)N2CCC(Cn3cncn3)(C3CCCCC3)CC2)[C@H](c2ccc(Cl)cc2)C1 :: 7.48

As a next step, examine the compound that follows.
I looked up CC[C@H](C)[C@@H]1NC(=O)[C@H]([C@@H](C)O)NC(=O)[C@H](Cc2c[nH]c3ccccc23)NC(=O)[C@H](CCCN=C(N)N)NC(=O)[C@@H](Cc2ccccc2)NC(=O)[C@H](Cc2cnc[nH]2)NC(=O)[C@H]([C@@H](C)O)NC(=O)[C@H](Cc2ccc(O)cc2)NC(=O)[C@H](CO)NC(=O)[C@@H]2CCCN2C1=O and its pEC50 for Melanocortin receptor 4 (Homo sapiens, UniProt P32245, Y268A) was 6.57
